study_target: T1, CD123-Fc recombinant protein (human, UniProt P26951 19-305)
T1 construct: construct not described; not shown: Fc part
T1 sequence (looked up): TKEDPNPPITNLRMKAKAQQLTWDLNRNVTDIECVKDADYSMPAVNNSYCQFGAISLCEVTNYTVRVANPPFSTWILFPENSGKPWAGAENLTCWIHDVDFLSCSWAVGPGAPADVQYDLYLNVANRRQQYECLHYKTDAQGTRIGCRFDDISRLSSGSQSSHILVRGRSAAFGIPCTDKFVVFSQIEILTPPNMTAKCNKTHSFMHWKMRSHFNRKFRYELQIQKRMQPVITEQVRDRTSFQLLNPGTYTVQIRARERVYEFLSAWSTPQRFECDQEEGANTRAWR
assay_method_text: flow cytometry of T cells electroporated with CAR mRNA, stained with CD123-Fc + PE-anti-hIgG-Fc; Mock 0.36
metric_name: percent of cells in the CD123-Fc positive gate (%)
Report the value in % with no unit label.

Request: May I ask what percent of cells in the CD123-Fc positive gate has been recorded for anti-CD123 scFv-C33 (scFv, On mRNA-electroporated T cells as CAR) scFv: DIRLTQSPSSLSASVGDTITITCRASQDISSWIAWYQQKPGTAPRLLIYAASSLQSGVPSRFSGSGSGTDFTLTINSLHPEDFATYYCQQGSTFPLAFGGGTKVEIKGGGGSGGGGSGGGGSQVQLVQSGAEVKKPGSSVKVSCKASGGTFSSYAISWVRQAPGQGLEWMGGIIPIFGTANYAQKFQGRVTITADESTSTAYMELSSLRSEDTAVYYCARGLDNWNDVGWFDPWGQGTLVTVSS ?
Response: 58.5

Origin of measurements: patent US20250381223A1
